# assayed-target: HLA-B*5301 (human)
# test-conditions: remark: other sources report otherwise
pIC50: −log10 of the molar value.

binder: NPAIASLMAF (modifications not checked) [Peptide 15.0237, HCV NS4 1789]
pIC50: < 4.52
